System: human platelets
Test: Platelet toxicity assay (MTS viability)
Format: cell-based
Conditions: Homo sapiens, Platelet, 48 h, Table 4; human platelets; 48 h; read-out: Platelets 48 h IC50
Please respond with reported pIC50 for every item in the list.
Hey, just a heads up that pIC50 is the negative log base 10 of the concentration in molar.

Lab note: `Cc1ncsc1-c1ccc([C@H](C)NC(=O)[C@@H]2C[C@@H](O)CN2C(=O)[C@@H](NC(=O)CCCCCCC(=O)N2CCN(C[C@]3(C)CCC(c4ccc(Cl)cc4)=C(CN4CCN(c5ccc(C(=O)NS(=O)(=O)c6ccc(N[C@H](CCN7C[C@H]8C[C@@H]7CO8)CSc7ccccc7)c(S(=O)(=O)C(F)(F)F)c6)cc5)CC4)C3)CC2)C(C)(C)C)cc1` gave pIC50 of 6.07

pIC50 reading for CC1(C)CCC(c2ccc(Cl)cc2)=C(CN2CCN(c3ccc(C(=O)NS(=O)(=O)c4ccc(N[C@H](CCN5CCOCC5)CSc5ccccc5)c(S(=O)(=O)C(F)(F)F)c4)cc3)CC2)C1 [ABT-263, navitoclax, reference compound] : 6.59

Measured pIC50, Cc1ncsc1-c1ccc([C@H](C)NC(=O)[C@@H]2C[C@@H](O)CN2C(=O)[C@@H](NC(=O)CCCCCCC(=O)N2CCN(CC3(C)CCC(c4ccc(Cl)cc4)=C(CN4CCN(c5ccc(C(=O)NS(=O)(=O)c6ccc(N[C@H](CCN7CCOCC7)CSc7ccccc7)c(S(=O)(=O)C(F)(F)F)c6)cc5)CC4)C3)CC2)C(C)(C)C)cc1 (stereo partly shown) : 5.79

###

Tested on: human platelets
Test: Platelet toxicity assay (MTS viability)
Assay type: cell-based
Settings: Homo sapiens, Platelet, 48 h, Table 3; human platelets; 48 h; mean of two independent experiments in triplicates; read-out: Platelets 48 h IC50
parameter_measured: IC50 (µM)
The reply should contain only the number, in µM.

IC50 in this record for Cc1ncsc1-c1ccc([C@H](C)NC(=O)[C@@H]2C[C@@H](O)CN2C(=O)[C@@H](NC(=O)CCCCCCC(=O)N2CCN(CC3(C)CCC(c4ccc(Cl)cc4)=C(CN4CCN(c5ccc(C(=O)NS(=O)(=O)c6ccc(N[C@H](CCN(C)CCO)CSc7ccccc7)c([N+](=O)[O-])c6)cc5)CC4)C3)CC2)C(C)(C)C)cc1 (stereo partly shown) [Compound 41] : 4.9

Form field IC50, entry Cc1ncsc1-c1ccc([C@H](C)NC(=O)[C@@H]2C[C@@H](O)CN2C(=O)[C@@H](NC(=O)CCCCCCC(=O)N2CCN(CC3(C)CCC(c4ccc(Cl)cc4)=C(CN4CCN(c5ccc(C(=O)NS(=O)(=O)c6ccc(N[C@H](CCN7CCCCC7)CSc7ccccc7)c([N+](=O)[O-])c6)cc5)CC4)C3)CC2)C(C)(C)C)cc1 (stereo partly shown) [Compound 39] : 4.57

// sample Cc1ncsc1-c1ccc([C@H](C)NC(=O)[C@@H]2C[C@@H](O)CN2C(=O)[C@@H](NC(=O)CCCCCNC(=O)c2ccc(N3CCN(CC4(C)CCC(c5ccc(Cl)cc5)=C(CN5CCN(c6ccc(C(=O)NS(=O)(=O)c7ccc(N[C@H](CCN8CCOCC8)CSc8ccccc8)c(S(=O)(=O)C(F)(F)F)c7)cc6)CC5)C4)CC3)cc2)C(C)(C)C)cc1 (stereo partly shown) [Compound 12] , its IC50 was 2.16

Measured IC50, Cc1ncsc1-c1ccc([C@H](C)NC(=O)[C@@H]2C[C@@H](O)CN2C(=O)[C@@H](NC(=O)CCCCCCC(=O)N2CCN(CC3(C)CCC(c4ccc(Cl)cc4)=C(CN4CCN(c5ccc(C(=O)NS(=O)(=O)c6ccc(N[C@H](CCN7CCCC7)CSc7ccccc7)c([N+](=O)[O-])c6)cc5)CC4)C3)CC2)C(C)(C)C)cc1 (stereo partly shown) [Compound 38] : 3

Cited source: patent US20250154141A1
